Below: a set of entries, each annotated with reported activity (mortality in %).
tested on: Amblyomma hebraeum; assay: Amblyomma hebraeum test (AMBYHE), nymph immersion; type: in vivo; settings: application rate 100 ppm, nymphs, after 42 days
Observation Type: activity (mortality in %)

>  <Compound>
O=C(NCc1ccc(N2CCC(c3cc(C(F)(F)F)cc(C(F)(F)F)c3)(C(F)(F)F)C2)cc1C(F)(F)F)NC1CC1 (stereo not shown)

>  <Observation Type>
activity (mortality in %)

>  <Obs Value>
90

$$$$
>  <Compound>
C=CCS(=O)(=O)CC(=O)NCc1ccc(N2CCC(c3cc(Cl)c(Cl)c(Cl)c3)(C(F)(F)F)C2)cc1C(F)(F)F (stereo not shown)

>  <Observation Type>
activity (mortality in %)

>  <Obs Value>
90

$$$$
>  <Compound>
C=CCNC(=O)NCc1ccc(N2CCC(c3cc(Cl)cc(Cl)c3)(C(F)(F)F)C2)cc1C(F)(F)F (stereo not shown)

>  <Observation Type>
activity (mortality in %)

>  <Obs Value>
80

$$$$
>  <Compound>
O=C(CC(F)(F)F)NCc1ccc(N2CCC(c3cc(Cl)c(Cl)c(Cl)c3)(C(F)(F)F)C2)cc1Br (stereo not shown)

>  <Observation Type>
activity (mortality in %)

>  <Obs Value>
90

$$$$
>  <Compound>
O=C(CC(F)(F)F)NCc1ccc(N2CCC(c3cc(C(F)(F)F)cc(C(F)(F)F)c3)(C(F)(F)F)C2)nc1C(F)(F)F (stereo not shown)

>  <Observation Type>
activity (mortality in %)

>  <Obs Value>
85

$$$$
>  <Compound>
O=C(NCCC(F)(F)F)NCc1ccc(N2CCC(c3cc(Cl)cc(Cl)c3)(C(F)(F)F)C2)cc1C(F)(F)F (stereo not shown)

>  <Observation Type>
activity (mortality in %)

>  <Obs Value>
85

$$$$
>  <Compound>
CSCCC(=O)NCc1ccc(N2CCC(c3cc(Cl)cc(Cl)c3)(C(F)(F)F)C2)cc1Cl (stereo not shown)

>  <Observation Type>
activity (mortality in %)

>  <Obs Value>
90

$$$$

###

tested on: Boophilus microplus; experiment: Boophilus microplus test (injection); type: in vivo; settings: application rate 20 μg/animal, adult engorged females, after 7 days
Observation Type: activity (100% means that all eggs are infertile) (%)

>  <Compound>
CC(=O)CC(=O)NCc1ccc(N2CCC(c3cc(C(F)(F)F)cc(C(F)(F)F)c3)(C(F)(F)F)C2)cc1C(F)(F)F (stereo not shown)

>  <Assay Target>
Boophilus microplus

>  <Obs Value>
100

$$$$
>  <Compound>
O=C(NCC(F)(F)F)c1sc(N2CCC(c3cc(Cl)cc(Cl)c3)(C(F)(F)F)C2)nc1C(F)(F)F (stereo not shown)

>  <Assay Target>
Boophilus microplus

>  <Obs Value>
100

$$$$
>  <Compound>
CC(Br)C(=O)NCc1ccc(N2CCC(c3cc(Cl)cc(Cl)c3)(C(F)(F)F)C2)cc1Cl (stereo not shown)

>  <Assay Target>
Boophilus microplus

>  <Obs Value>
100

$$$$
>  <Compound>
O=C(NCc1ccc(N2CCC(c3cc(Cl)cc(C(F)(F)F)c3)(C(F)(F)F)C2)cc1C(F)(F)F)C1CC1 (stereo not shown)

>  <Assay Target>
Boophilus microplus

>  <Obs Value>
100

$$$$
>  <Compound>
CCNC(=O)NCc1ccc(N2CCC(c3cc(C(F)(F)F)cc(C(F)(F)F)c3)(C(F)(F)F)C2)cc1C(F)(F)F (stereo not shown)

>  <Assay Target>
Boophilus microplus

>  <Obs Value>
100

$$$$
>  <Compound>
O=C(CC1CC1)NCc1ccc(N2CCC(c3cc(Cl)cc(Cl)c3)(C(F)(F)F)C2)cc1Cl (stereo not shown)

>  <Assay Target>
Boophilus microplus

>  <Obs Value>
100

$$$$
>  <Compound>
CC(NC(=O)NCc1ccc(N2CCC(c3cc(Cl)cc(Cl)c3)(C(F)(F)F)C2)cc1Cl)C(F)(F)F (stereo not shown)

>  <Assay Target>
Boophilus microplus

>  <Obs Value>
100

$$$$

Reference source: patent US9266830B2
